The measured values listed here are drawn from PubChem BioAssay (NCI).

tested on: NCI-H23 lung; test: NCI tumour cell line growth inhibition, 48 h
Field: TGI. Provide a value for each of the compounds that follow.

Request the reported TGI associated with Cc1ccc2nc(-c3ccc(N)c(Br)c3)sc2c1
96.9 µM

Entry under review: O=S(=O)(Nc1ccccc1)c1ccc(-c2c3nc(c(-c4ccc(S(=O)(=O)Nc5ccccc5)cc4)c4ccc([nH]4)c(-c4ccc(S(=O)(=O)Nc5ccccc5)cc4)c4nc(c(-c5ccc(S(=O)(=O)Nc6ccccc6)cc5)c5ccc2[nH]5)C=C4)C=C3)cc1 . Reported TGI?
> 31.6 µM

Entry under review: Cc1cc(O)c(C(=O)O)c2c1C(=O)c1c(O)c(OCC(O)C(O)C(O)C(O)CO)c(O)c(O)c1C2=O (stereo not drawn) (tested in a mixture with another compound) . Reported TGI?
> 100 µM
